# measuredTarget: T1, P9A-bP
# T1 chain: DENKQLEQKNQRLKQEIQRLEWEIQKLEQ
# protocolDetails: two-hybrid library CCNG1;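 also: natural log of median RNA to DNA barcode read ratio; higher means stronger binding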
# interaction score values compiled below

>  <binder>
DENKQLEQKIQRLKQKNQRLKWEIQKLEQ [P5A-bP]

>  <observed>
-1.44

$$$$
>  <binder>
DEIKQLEQEIQRLEQKNQRLKWKNQKLKQ [P3A-bP]

>  <observed>
-0.126

$$$$
>  <binder>
DKNKQLKQKIQRLKQKIQRLKWENQKLEQ [P12A-bP]

>  <observed>
-0.693

$$$$

Kindly consider the entry below.
Ask | Given the entry DEIKQLEQENQRLEQENQRLEWEIQKLEQ [P1A-bP] , report its measured interaction score.
Reply | -2.64

Cited source for all entries: paper PMC10397247
